- Target or system: Transient receptor potential cation channel subfamily A member 1 (Homo sapiens)
- Sequence (O75762 whole entry): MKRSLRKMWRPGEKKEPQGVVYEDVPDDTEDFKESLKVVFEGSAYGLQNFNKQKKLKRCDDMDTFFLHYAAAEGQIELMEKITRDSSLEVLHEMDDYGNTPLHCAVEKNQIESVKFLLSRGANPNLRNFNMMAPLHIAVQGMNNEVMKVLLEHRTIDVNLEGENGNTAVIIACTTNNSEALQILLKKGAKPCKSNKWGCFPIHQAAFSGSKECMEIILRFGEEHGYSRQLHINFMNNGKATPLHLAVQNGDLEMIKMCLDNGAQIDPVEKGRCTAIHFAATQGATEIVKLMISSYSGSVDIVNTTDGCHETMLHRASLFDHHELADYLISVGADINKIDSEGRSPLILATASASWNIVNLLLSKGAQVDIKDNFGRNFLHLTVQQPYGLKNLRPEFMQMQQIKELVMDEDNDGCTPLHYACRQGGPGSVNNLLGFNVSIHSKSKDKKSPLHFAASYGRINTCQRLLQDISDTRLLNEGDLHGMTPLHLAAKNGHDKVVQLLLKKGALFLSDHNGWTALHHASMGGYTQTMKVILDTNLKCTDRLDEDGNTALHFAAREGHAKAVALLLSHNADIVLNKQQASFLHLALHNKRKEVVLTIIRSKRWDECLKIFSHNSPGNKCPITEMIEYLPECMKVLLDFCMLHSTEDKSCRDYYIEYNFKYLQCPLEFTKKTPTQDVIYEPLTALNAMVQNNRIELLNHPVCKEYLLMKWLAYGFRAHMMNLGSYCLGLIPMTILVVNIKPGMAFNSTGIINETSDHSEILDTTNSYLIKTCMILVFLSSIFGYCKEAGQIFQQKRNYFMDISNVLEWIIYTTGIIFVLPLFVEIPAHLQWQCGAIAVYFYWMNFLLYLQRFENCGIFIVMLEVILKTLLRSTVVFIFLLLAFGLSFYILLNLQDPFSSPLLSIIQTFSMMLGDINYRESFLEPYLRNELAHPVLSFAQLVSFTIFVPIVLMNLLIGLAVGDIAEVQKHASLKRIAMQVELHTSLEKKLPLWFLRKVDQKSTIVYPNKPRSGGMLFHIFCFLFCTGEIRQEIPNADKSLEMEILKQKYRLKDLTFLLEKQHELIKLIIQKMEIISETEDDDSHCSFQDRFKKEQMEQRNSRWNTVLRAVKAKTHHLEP
- Experiment summary: Radiometric Calcium Assay: The inhibition of TRPA1 receptor activation was measured as inhibition of allylisothiocyanate (AITC) induced cellular uptake of radioactive calcium. Test compounds were dissolved in DMSO to prepare 10 mM stock solution and then diluted using plain medium with 0.1% BSA and 1.8 mM CaCl2 to get desired concentration. Final concentration of DMSO in the reaction was 0.5% (v/v). Human TRPA1 expressing CHO cells were grown in F-12 DMEM medium with 10% FBS, 1% penicillin-streptomycin solution, and 400 ug/ml of G-418. Cells were seeded 24 h prior to the assay in 96 well plates so as to get 50,000 cells per well on the day of experiment. Cells were treated with test compounds for 10 min followed by addition of AITC at a final concentration of 30 micromolar and 5 uCi/ml 45Ca+2 for 3 min at 25° C. Cells were washed and lysed using buffer containing 1% Triton X-100, 0.1% deoxycholate and 0.1% SDS. Radioactivity in the lysate was measured in Packard Top count.
Below, each of the molecules is paired with its reported IC50 value.

>  <Input smiles>
Cn1nc2c(c1CC(=O)/N=c1\scc(-c3ccc(F)c(C(F)(F)F)c3F)n1COP(=O)(O)O)c(=O)n(C)c(=O)n2C

>  <IC50 (nM)>
1580

$$$$
>  <Input smiles>
Cc1oc2c(c1CC(=O)/N=c1\scc(-c3ccc(OC(F)(F)F)c(Cl)c3)n1COP(=O)(O)O)c(=O)n(C)c(=O)n2C

>  <IC50 (nM)>
1180

$$$$

---

- Target or system: Transient receptor potential cation channel subfamily V member 1 (Homo sapiens)
- Sequence (Q8NER1 whole entry): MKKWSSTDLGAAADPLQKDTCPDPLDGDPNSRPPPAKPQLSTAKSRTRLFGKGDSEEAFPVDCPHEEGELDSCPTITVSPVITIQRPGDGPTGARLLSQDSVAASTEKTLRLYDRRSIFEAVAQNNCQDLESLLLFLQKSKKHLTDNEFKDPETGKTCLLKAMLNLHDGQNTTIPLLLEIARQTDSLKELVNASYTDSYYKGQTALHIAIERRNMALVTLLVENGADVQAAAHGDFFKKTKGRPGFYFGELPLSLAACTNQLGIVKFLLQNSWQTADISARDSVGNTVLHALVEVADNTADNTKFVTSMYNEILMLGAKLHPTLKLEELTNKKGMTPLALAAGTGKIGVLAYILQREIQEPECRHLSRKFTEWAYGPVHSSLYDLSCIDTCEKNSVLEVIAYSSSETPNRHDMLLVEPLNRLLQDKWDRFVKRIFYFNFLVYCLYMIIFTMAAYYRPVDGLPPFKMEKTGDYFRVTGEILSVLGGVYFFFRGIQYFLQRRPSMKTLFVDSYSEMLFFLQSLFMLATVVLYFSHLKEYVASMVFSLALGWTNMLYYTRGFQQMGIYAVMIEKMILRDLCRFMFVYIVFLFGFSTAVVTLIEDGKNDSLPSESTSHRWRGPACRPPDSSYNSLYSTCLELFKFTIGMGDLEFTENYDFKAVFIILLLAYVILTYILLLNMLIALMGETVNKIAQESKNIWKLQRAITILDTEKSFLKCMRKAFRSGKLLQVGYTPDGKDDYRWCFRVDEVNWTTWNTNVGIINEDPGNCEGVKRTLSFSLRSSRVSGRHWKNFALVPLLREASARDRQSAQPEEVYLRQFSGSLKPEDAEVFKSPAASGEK
- Experiment summary: Radiometric Calcium Assay: The inhibition of TRPA1 receptor activation was measured as inhibition of allylisothiocyanate (AITC) induced cellular uptake of radioactive calcium. Test compounds were dissolved in DMSO to prepare 10 mM stock solution and then diluted using plain medium with 0.1% BSA and 1.8 mM CaCl2 to get desired concentration. Final concentration of DMSO in the reaction was 0.5% (v/v). Human TRPA1 expressing CHO cells were grown in F-12 DMEM medium with 10% FBS, 1% penicillin-streptomycin solution, and 400 ug/ml of G-418. Cells were seeded 24 h prior to the assay in 96 well plates so as to get 50,000 cells per well on the day of experiment. Cells were treated with test compounds for 10 min followed by addition of AITC at a final concentration of 30 micromolar and 5 uCi/ml 45Ca+2 for 3 min at 25° C. Cells were washed and lysed using buffer containing 1% Triton X-100, 0.1% deoxycholate and 0.1% SDS. Radioactivity in the lysate was measured in Packard Top count.

>  <Input smiles>
Cn1c(=O)c2c(CC(=O)Nc3nc(-c4ccc(C(F)(F)F)c(F)c4F)cs3)nsc2n(C)c1=O

>  <IC50>
17.7 µM

$$$$
>  <Input smiles>
Cc1oc2c(c1CC(=O)/N=c1\scc(-c3ccc(OC(F)(F)F)c(Cl)c3)n1COP(=O)(O)O)c(=O)n(C)c(=O)n2C

>  <IC50>
> 10 µM

$$$$
>  <Input smiles>
Cc1oc2c(c1CC(=O)Nc1nc(-c3ccc(OC(F)(F)F)c(Cl)c3)cs1)c(=O)n(C)c(=O)n2C

>  <IC50>
> 10 µM

$$$$
>  <Input smiles>
Cn1nc2c(c1CC(=O)/N=c1\scc(-c3ccc(F)c(C(F)(F)F)c3F)n1COP(=O)(O)O)c(=O)n(C)c(=O)n2C

>  <IC50>
> 10 µM

$$$$
>  <Input smiles>
Cc1oc2c(c1CC(=O)/N=c1\scc(-c3ccc(OC(F)(F)F)c(Cl)c3)n1COC(=O)[C@@H](N)C(C)C)c(=O)n(C)c(=O)n2C

>  <IC50>
> 10 µM

$$$$

Taken from ChEMBL document CHEMBL3886359.
